These data points were gathered from patent US20170210751A1.

System: Z-138 cell line
assay_name: Z-138 Proliferation Assay (Cell Titer Glo)
Type: cell-based
applied_conditions: Homo sapiens, 120 h; Z-138 cells, 5 days incubation, ATP (Cell Titer Glo)
Below is a list of entries, each paired with its recorded EC50 value.

{"compound": "O=C(NC[C@H](O)CN1CCc2cnccc2C1)c1cc(NC2COC2)ncn1", "EC50": "> 5 µM"}
{"compound": "O=C(NC[C@H](O)CN1CCc2cccnc2C1)c1cc(NC2COC2)ncn1", "EC50": "1 to 10 µM"}
{"compound": "CC(=O)N1CCC(Nc2cc(C(=O)NC[C@H](O)CN3CCc4scnc4C3)ccn2)CC1", "EC50": "> 5 µM"}
{"compound": "OC(COc1cccc(CNC2CCCC2)c1)CN1CCc2ncccc2C1 (centres unmarked)", "EC50": "> 40 µM"}
{"compound": "Cn1cnc2c1CCN(C[C@@H](O)CNC(=O)c1cc(NC3COC3)ncn1)C2", "EC50": "> 5 µM"}
{"compound": "CC(=O)N1CCC(Nc2cc(C(=O)NC[C@H](O)CN3CCc4scnc4C3)ncn2)CC1", "EC50": "> 5 µM"}
{"compound": "CC(=O)N1CCC(Nc2cc(C(=O)NC[C@H](O)CN3CCc4scc(C)c4C3)ncn2)CC1", "EC50": "0.101 to 1 µM"}
{"compound": "CC(=O)N1CC(Nc2cc(C(=O)NC[C@H](O)CN3CCc4cn[nH]c4C3)ncn2)C1", "EC50": "> 5 µM"}
